# Assay remarks: Microsomal metabolic stability, human liver microsomes
# Assay type: in vitro ADME
# Recorded conditions: pooled human liver microsomes, pH 7.4
Outcome measure: remaining at 0.5 h, 0.1 μM (%)

1. Clc1ccc2c(c1)nc(C1CCNCC1)n2Cc1ccccc1 [Compound 46a]: 91.8
2. NCCCNc1nc2cc(Br)ccc2n1Cc1ccccc1: 99.4
3. Clc1ccc2c(nc(N3CCNCC3)n2Cc2ccccc2)c1Br [Compound 42k]: 97.4

* * *

As an illustration, consider measured IC50 for compounds on hERG channel (Homo sapiens).
Sequence (Q12809 whole entry): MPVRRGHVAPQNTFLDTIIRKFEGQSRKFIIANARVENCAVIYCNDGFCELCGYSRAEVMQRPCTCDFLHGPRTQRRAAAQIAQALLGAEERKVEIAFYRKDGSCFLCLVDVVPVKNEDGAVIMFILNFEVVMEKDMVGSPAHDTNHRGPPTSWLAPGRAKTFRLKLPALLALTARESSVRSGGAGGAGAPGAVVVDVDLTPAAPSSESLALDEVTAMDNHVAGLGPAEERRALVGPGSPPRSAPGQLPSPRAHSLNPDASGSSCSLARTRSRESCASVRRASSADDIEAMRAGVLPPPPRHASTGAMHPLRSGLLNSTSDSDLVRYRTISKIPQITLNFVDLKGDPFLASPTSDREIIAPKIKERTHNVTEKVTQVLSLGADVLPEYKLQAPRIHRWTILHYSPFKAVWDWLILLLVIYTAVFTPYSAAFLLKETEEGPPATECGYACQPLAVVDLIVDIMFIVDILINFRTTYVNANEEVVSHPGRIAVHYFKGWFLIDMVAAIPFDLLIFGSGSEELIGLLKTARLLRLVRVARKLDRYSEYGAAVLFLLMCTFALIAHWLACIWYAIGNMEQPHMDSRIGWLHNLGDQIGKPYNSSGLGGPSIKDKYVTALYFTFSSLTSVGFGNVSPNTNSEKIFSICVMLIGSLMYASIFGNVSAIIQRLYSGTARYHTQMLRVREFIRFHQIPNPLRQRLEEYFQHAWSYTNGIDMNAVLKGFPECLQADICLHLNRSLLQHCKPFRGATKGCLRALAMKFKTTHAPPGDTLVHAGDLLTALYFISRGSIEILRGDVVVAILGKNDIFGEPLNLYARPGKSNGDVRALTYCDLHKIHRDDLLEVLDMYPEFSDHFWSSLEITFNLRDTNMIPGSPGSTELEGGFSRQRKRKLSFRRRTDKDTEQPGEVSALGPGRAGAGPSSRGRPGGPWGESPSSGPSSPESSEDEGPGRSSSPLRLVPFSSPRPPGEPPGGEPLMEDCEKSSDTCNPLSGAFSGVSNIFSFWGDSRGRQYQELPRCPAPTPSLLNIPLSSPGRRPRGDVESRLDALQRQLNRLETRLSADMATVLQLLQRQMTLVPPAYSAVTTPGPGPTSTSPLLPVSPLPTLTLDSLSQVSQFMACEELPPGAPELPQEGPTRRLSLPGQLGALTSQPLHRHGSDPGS
The reply should contain only the number, in nM.

Observe how each entry below is paired with its result.
1. c1ccc(Cn2c(N3CCNCC3)nc3ccccc32)cc1 [Compound 1, Lerisetron, reference compound]: 320
2. Cl.Clc1ccc2c(nc(N3CCNCC3)n2Cc2ccccc2)c1Cl [Compound 42a]: 590
3. Cl.Clc1ccc2c(c1)nc(N1CCNCC1)n2Cc1ccccc1 [Compound 3]: 9

Which IC50 is listed for NCCNc1nc2cc(Cl)ccc2n1Cc1ccccc1 [Compound 33] ?
2200

What do we get for Clc1ccc2c(c1)nc(C1CCNCC1)n2Cc1ccccc1 [Compound 46a] ?
460

What do we get for CC(=O)N1CCN(c2nc3cc(Cl)ccc3n2Cc2ccccc2)CC1 [Compound 18] ?
390

What do we get for Brc1ccc2c(c1)nc(N1CCNCC1)n2Cc1ccccc1 [Compound 16b] ?
30

What do we get for N#CCN1CCN(c2nc3cc(Cl)ccc3n2Cc2ccccc2)CC1 [Compound 19] ?
180

What do we get for O=C1CN(c2nc3cc(Cl)ccc3n2Cc2ccccc2)CCN1 [Compound 17] ?
2300

* * *

# Assay remarks: Solubility at pH 6.8
# Assay type: physicochemical
# Recorded conditions: pH 6.8, aqueous buffer
Outcome measure: solubility (µM)
The reply should contain only the number, in µM.

Which solubility is listed for Cl.Clc1ccc2c(c1)nc(N1CCNCC1)n2Cc1ccccc1 ?
770

* * *

# Assay remarks: P. berghei mouse model efficacy
# Assay type: in vivo, Plasmodium berghei (NMRI mice)
# Recorded conditions: female, NMRI, plasma, po, 100 mg/kg
Outcome measure: AUC (µM·h)
The reply should contain only the number, in µM·h.

Which AUC is listed for Cl.Clc1ccc2c(c1)nc(N1CCNCC1)n2Cc1ccccc1 [Compound 3] ?
377

* * *

# Assay remarks: Pharmacokinetic studies in rats
# Format: in vivo
# Recorded conditions: rat, plasma, iv, 1 mg/kg
Outcome measure: half-life (h)
The reply should contain only the number, in h.

Which half-life is listed for Cl.Clc1ccc2c(c1)nc(N1CCNCC1)n2Cc1ccccc1 [Compound 3] ?
1.98

* * *

# Assay remarks: P. berghei mouse model efficacy
# Assay type: in vivo, Plasmodium berghei (NMRI mice)
# Recorded conditions: female, NMRI, plasma, po, 100 mg/kg
Outcome measure: Cmax (µM)
The reply should contain only the number, in µM.

Which Cmax is listed for Cl.Clc1ccc2c(c1)nc(N1CCNCC1)n2Cc1ccccc1 ?
20.6

* * *

# Assay remarks: P. falciparum SCID mouse model efficacy
# Assay type: in vivo, Plasmodium falciparum (NOD-scid IL-2Rγnull mice)
# Recorded conditions: female, NOD-scid IL-2Rγnull, plasma, po, 25 mg/kg
Outcome measure: Cmax (µM)
The reply should contain only the number, in µM.

Which Cmax is listed for Cl.Clc1ccc2c(c1)nc(N1CCNCC1)n2Cc1ccccc1 [Compound 3] ?
5.2

* * *

# Assay remarks: P. falciparum SCID mouse model efficacy
# Assay type: in vivo, Plasmodium falciparum (NOD-scid IL-2Rγnull mice)
# Recorded conditions: female, NOD-scid IL-2Rγnull, plasma, po, 25 mg/kg
Outcome measure: AUC (µM·h)
The reply should contain only the number, in µM·h.

Which AUC is listed for Cl.Clc1ccc2c(c1)nc(N1CCNCC1)n2Cc1ccccc1 ?
86

* * *

# Assay remarks: Microsomal metabolic stability, human liver microsomes
# Type: in vitro ADME
# Recorded conditions: pooled human liver microsomes, pH 7.4
Outcome measure: remaining at 0.5 h, 0.1 μM (%)

Observe how each entry below is paired with its result.
1. Brc1ccc2c(c1)nc(C1CCNCC1)n2Cc1ccccc1 [Compound 46b]: 99.3
2. NC1CCN(c2nc3cc(Cl)ccc3n2Cc2ccccc2)CC1 [Compound 28]: 80.9
3. NCCNc1nc2cc(Cl)ccc2n1Cc1ccccc1 [Compound 33]: 98.9
4. Brc1ccc2c(c1)nc(N1CCNCC1)n2Cc1ccccc1 [Compound 16b]: 88.2

1: FC(F)(F)c1ccc2c(c1)nc(N1CCNCC1)n2Cc1ccccc1 [Compound 14c]
2: C[C@@H]1CN(c2nc3cc(Cl)ccc3n2Cc2ccccc2)C[C@H](C)N1 [Compound 27]
Identify the entry with the larger remaining at 0.5 h, 0.1 μM. Options: 1 and 2 Mark your answer with the label of the selected entry.
1

* * *

# System: P. falciparum NF54
# Assay remarks: In vitro antiplasmodium assay
# Type: cell-based, Plasmodium falciparum
# Recorded conditions: authors' Pf assays
Outcome measure: in vitro antiplasmodium activity (in words)

1. O=C(NCCCNc1nc2ccccc2n1Cc1ccccc1)c1cc(Cl)cc(Cl)c1: completely inactive
2. Cc1ccc(C(=O)N2CCN(c3nc4cc(Cl)ccc4n3Cc3ccccc3)CC2)cc1: completely inactive
3. Cc1ccc(C(=O)N2CCN(c3nc4ccccc4n3C)CC2)cc1.Cl: completely inactive

* * *

# Assay remarks: Microsomal metabolic stability, rat liver microsomes
# Format: in vitro ADME
# Recorded conditions: pH 7.4
Outcome measure: remaining at 0.5 h, 0.1 μM (%)

Observe how each entry below is paired with its result.
1) Clc1ccc2c(nc(N3CCNCC3)n2Cc2ccccc2)c1Br [Compound 42k]: 93.8
2) FC(F)(F)c1ccc2c(c1)nc(N1CCNCC1)n2Cc1ccccc1 [Compound 14c]: 95.6
3) NCCNc1nc2cc(Cl)ccc2n1Cc1ccccc1 [Compound 33]: 88

1: Brc1ccc2c(c1)nc(N1CCNCC1)n2Cc1ccccc1 [Compound 16b]
2: C[C@@H]1CN(c2nc3cc(Cl)ccc3n2Cc2ccccc2)C[C@H](C)N1 [Compound 27]
Lab log: flag the item ( 1 or 2 ) with the smaller remaining at 0.5 h, 0.1 μM figure. Mark your answer with the label of the selected entry.
2
(2: 36.5%, 1: 89.8%)

* * *

# Assay remarks: Aqueous solubility, miniaturized shake flask method
# Format: physicochemical
# Recorded conditions: aqueous solution, 25 °C, pH 6.5, aqueous buffer, thermodynamic from solid
Outcome measure: solubility at 20 h (µM)

P: Cl.Clc1ccc2c(c1)nc(N1CCNCC1)n2Cc1ccccc1
Q: O=C(O)CN1CCN(c2nc3cc(Cl)ccc3n2Cc2ccccc2)CC1
Lab log: flag the item ( P or Q ) with the smaller solubility at 20 h figure. Mark your answer with the label of the selected entry.
P
(P: 140 µM, Q: 200 µM)

* * *

# Assay remarks: Microsomal metabolic stability, rat liver microsomes
# Type: in vitro ADME
# Recorded conditions: pH 7.4
Outcome measure: remaining at 0.5 h, 0.1 μM (%)

Observe how each entry below is paired with its result.
1) Cl.Clc1ccc2c(c1)nc(N1CCNCC1)n2Cc1ccccc1: 42.1
2) Brc1ccc2c(c1)nc(C1CCNCC1)n2Cc1ccccc1 [Compound 46b]: 97.7
3) Clc1ccc2c(c1)nc(C1CCNCC1)n2Cc1ccccc1 [Compound 46a]: 92.9
4) N#CCN1CCN(c2nc3cc(Cl)ccc3n2Cc2ccccc2)CC1: 1.2

P: NC1CCN(c2nc3cc(Cl)ccc3n2Cc2ccccc2)CC1
Q: NCCCNc1nc2cc(Br)ccc2n1Cc1ccccc1
R: Cl.Clc1ccc2c(nc(N3CCNCC3)n2Cc2ccccc2)c1Cl [Compound 42a]
Sort these compounds on remaining at 0.5 h, 0.1 μM so the largest reading comes first. # output: labels, in the requested order
Q, R, P

* * *

# Assay remarks: Microsomal metabolic stability, mouse liver microsomes
# Assay type: in vitro ADME
# Recorded conditions: pH 7.4
Outcome measure: remaining at 0.5 h, 0.1 μM (%)

Observe how each entry below is paired with its result.
1) N#CCN1CCN(c2nc3cc(Cl)ccc3n2Cc2ccccc2)CC1: 2
2) NCCNc1nc2cc(Cl)ccc2n1Cc1ccccc1: 71.2
3) FC(F)(F)c1ccc2c(c1)nc(N1CCNCC1)n2Cc1ccccc1 [Compound 14c]: 82
4) Brc1ccc2c(c1)nc(C1CCNCC1)n2Cc1ccccc1 [Compound 46b]: 97.4

1: Clc1ccc2c(nc(N3CCNCC3)n2Cc2ccccc2)c1Br [Compound 42k]
2: C[C@@H]1CN(c2nc3cc(Cl)ccc3n2Cc2ccccc2)C[C@H](C)N1
3: Cl.Clc1ccc2c(c1)nc(N1CCNCC1)n2Cc1ccccc1
Sort these molecules on remaining at 0.5 h, 0.1 μM so the largest reading comes first. # output: labels, in the requested order
1, 3, 2

* * *

As an illustration, consider measured pIC50 for compounds on hERG channel (Homo sapiens).
Quick note: pIC50 means taking -log10 of the concentration in moles per liter.

Which pIC50 is listed for C[C@@H]1CN(c2nc3cc(Cl)ccc3n2Cc2ccccc2)C[C@H](C)N1 ?
7.77

What do we get for NC1CCN(c2nc3cc(Cl)ccc3n2Cc2ccccc2)CC1 ?
7.15

What do we get for FC(F)(F)c1ccc2c(c1)nc(N1CCNCC1)n2Cc1ccccc1 [Compound 14c] ?
6.82
